# target.under.test: Dual specificity tyrosine-phosphorylation-regulated kinase 1A (Rattus norvegicus, UniProt Q63470)
# assay.name: Inhibition of GST-fused rat recombinant DYRK1A expressed in Escherichia coli assessed as [gamma-33P]ATP incorporation after 10 mins by scintillation counting
attribute.measured: log10(IC50) (log10 of the value in µM)
Remember, log10 of IC50, in µM.

CC(=O)Nc1ccc2c(c1)/C(=C1/Nc3ccccc3C1=O)C(=O)N2 = 0.40
CC(=O)Nc1ccc2c(c1)/C(=C1/Nc3ccc(Br)cc3C1=O)C(=O)N2 = 0.86
Nc1ccc2c(c1)/C(=C1/Nc3ccccc3/C1=N\O)C(=O)N2 = 0.62
CC(=O)Nc1ccc2c(c1)/C(=C1/Nc3ccccc3/C1=N\O)C(=O)N2 = 1.18

Fill in the blank: the reported log10(IC50) of Nc1ccc2c(c1)/C(=C1/Nc3ccccc3C1=O)C(=O)N2 is ____.
0.40

Same for O=Nc1c(-c2c(O)[nH]c3ccc([N+](=O)[O-])cc23)[nH]c2ccccc12
0.11

---

# System: PC-3
# assay.name: Antiproliferative activity against human PC3 cells after 72 hrs by imaging analysis
# Format: functional, cell-based
# settings: PC-3, 72 h
pIC50: −log10 of the molar value.
Lab note: compare pIC50 against 5. Equal or greater, write class 1. Smaller, write class 0.

// inclusive: pIC50 at least 5? input: Nc1ccc2c(c1)NC(=O)/C2=C1\Nc2ccccc2C1=O
class 0

Same for O=C1Nc2cc([N+](=O)[O-])ccc2/C1=C1/Nc2ccccc2C1=O
class 0

Same for O=C1Nc2ccccc2/C1=C1\C(=O)Nc2ccc([N+](=O)[O-])cc21
class 0

Same for Nc1ccc2c(c1)/C(=C1\C(=O)Nc3ccccc31)C(=O)N2
class 0

Same for CC(=O)O[C@H]1C(=O)[C@@]2(C)[C@H]([C@H](OC(=O)c3ccccc3)[C@]3(O)C[C@H](OC(=O)[C@H](O)[C@@H](NC(=O)c4ccccc4)c4ccccc4)C(C)=C1C3(C)C)[C@]1(OC(C)=O)CO[C@@H]1C[C@@H]2O
class 1

Same for CC(=O)Nc1ccc2c(c1)/C(=C1/Nc3ccccc3C1=O)C(=O)N2
class 1

Same for Nc1ccc2c(c1)/C(=C1/Nc3ccccc3C1=O)C(=O)N2
class 1
